Below: a set of entries, each annotated with reported Percent inhibition (contractive reaction of acetylcholine).
Tested on: Acetylcholine
Assay: Activity against acetylcholine (I): inhibition of acetylcholine-induced contraction of isolated ilea
Parameters: species or system SD/Slc male rats
Settings: 10^-4 M; 10^-6 M acetylcholine; isolated rat ilea
// note: answer is a bare numeric in %

Examples with answers:
Cc1cccc(C)c1NC(=O)CCNCCNC(C)C
0
Cc1cccc(C)c1NC(=O)CCNCCCN(C)C
7
CCc1cccc(CC)c1NC(=O)CCNCCCCCN(CC(C)C)CC(C)C
9
CCN(CC)CCCNCCC(=O)Nc1c(C)cccc1C
28

Proceeding to the next compound to report its Percent inhibition (contractive reaction of acetylcholine).
Requested read-out Percent inhibition (contractive reaction of acetylcholine), target or system Acetylcholine, entry Cc1cccc(C)c1NC(=O)CCNCCN(C(C)C)C(C)C
20
